biological target: tyrosyl-DNA phosphodiesterase 1 (TDP1) (Homo sapiens, UniProt Q9NUW8); assay: Real-time fluorescent detection of TDP1 activity (BHQ1 cleavage from 3′-end of single-stranded FAM oligonucleotide); details: recombinant TDP1 1.5 nM, 50 nM single-stranded oligonucleotide, 26 °C; mean ± SD, at least three replicates
Sequence (Q9NUW8 whole entry): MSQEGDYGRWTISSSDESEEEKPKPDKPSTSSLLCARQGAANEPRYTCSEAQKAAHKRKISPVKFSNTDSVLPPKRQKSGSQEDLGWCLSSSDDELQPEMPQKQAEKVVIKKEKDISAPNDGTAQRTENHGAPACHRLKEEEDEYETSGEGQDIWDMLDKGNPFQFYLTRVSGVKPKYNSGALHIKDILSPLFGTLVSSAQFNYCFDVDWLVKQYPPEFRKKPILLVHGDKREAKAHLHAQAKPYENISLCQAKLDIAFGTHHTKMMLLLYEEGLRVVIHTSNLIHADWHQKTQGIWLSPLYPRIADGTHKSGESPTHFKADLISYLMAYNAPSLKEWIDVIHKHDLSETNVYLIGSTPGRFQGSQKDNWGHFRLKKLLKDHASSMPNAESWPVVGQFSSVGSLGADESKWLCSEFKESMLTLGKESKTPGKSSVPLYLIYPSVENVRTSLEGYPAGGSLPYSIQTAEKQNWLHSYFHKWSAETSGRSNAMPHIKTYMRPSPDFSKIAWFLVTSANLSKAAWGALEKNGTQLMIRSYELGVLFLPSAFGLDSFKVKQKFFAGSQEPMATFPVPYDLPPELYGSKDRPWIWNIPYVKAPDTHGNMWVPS
Recorded log10 IC50 by entry
quantity measured: log10 IC50 (log10 of the value in nM)

INSERT INTO assay_data (compound_structure, quantity_measured, observed_value) VALUES
  ('CCCn1cc(NC(=O)CCCCCCCCCCCC(=O)Nc2cc(-c3nc4ccc(-c5nc6ccc(N7CCN(C)CC7)cc6[nH]5)cc4[nH]3)n(CCC)c2)cc1-c1nc2ccc(-c3nc4ccc(N5CCN(C)CC5)cc4[nH]3)cc2[nH]1', 'log10 IC50', 2.95),
  ('CN1CCN(c2ccc3nc(-c4ccc5nc(CNC(=O)CN6CCN(CC(=O)NCc7nc8ccc(-c9nc%10ccc(N%11CCN(C)CC%11)cc%10[nH]9)cc8[nH]7)CC6)[nH]c5c4)[nH]c3c2)CC1', 'log10 IC50', 3.78),
  ('CN1CCN(c2ccc3nc(-c4ccc5nc(-c6ccc7nc(CNC(=O)CCCN8CCN(CCCC(=O)NCc9nc%10ccc(-c%11nc%12ccc(-c%13nc%14ccc(N%15CCN(C)CC%15)cc%14[nH]%13)cc%12[nH]%11)cc%10[nH]9)CC8)[nH]c7c6)[nH]c5c4)[nH]c3c2)CC1', 'log10 IC50', 2.30),
  ('CCCn1cc(NC(=O)CCCC(=O)Nc2cc(-c3nc4ccc(-c5nc6ccc(N7CCN(C)CC7)cc6[nH]5)cc4[nH]3)n(CCC)c2)cc1-c1nc2ccc(-c3nc4ccc(N5CCN(C)CC5)cc4[nH]3)cc2[nH]1', 'log10 IC50', 2.61),
  ('CC(=O)NCc1nc2ccc(-c3nc4ccc(N5CCN(C)CC5)cc4[nH]3)cc2[nH]1', 'log10 IC50', 3.18);

----------
target: tyrosyl-DNA phosphodiesterase 1 (TDP1) (Homo sapiens, UniProt Q9NUW8); assay: Real-time fluorescent detection of TDP1 activity (BHQ1 cleavage from 3′-end of single-stranded FAM oligonucleotide); details: recombinant TDP1 1.5 nM, 50 nM single-stranded oligonucleotide, 26 °C; mean ± SD, at least three replicates
pIC50: −log10 of the molar value.
quantity measured: pIC50

INSERT INTO measurements (compound, measured_on, quantity_measured, cmp, observed_value) VALUES
  ('CCCn1cc(NC(=O)CCCCCC(=O)Nc2cc(-c3nc4ccc(-c5nc6ccc(N7CCN(C)CC7)cc6[nH]5)cc4[nH]3)n(CCC)c2)cc1-c1nc2ccc(-c3nc4ccc(N5CCN(C)CC5)cc4[nH]3)cc2[nH]1 [DB2Py(5)]', 'tyrosyl-DNA phosphodiesterase 1 (TDP1) (Homo sapiens, UniProt Q9NUW8)', 'pIC50', '=', 6.46),
  ('CCCn1cc(NC(=O)CCCCCCCC(=O)Nc2cc(-c3nc4ccc(-c5nc6ccc(N7CCN(C)CC7)cc6[nH]5)cc4[nH]3)n(CCC)c2)cc1-c1nc2ccc(-c3nc4ccc(N5CCN(C)CC5)cc4[nH]3)cc2[nH]1 [DB2Py(7)]', 'tyrosyl-DNA phosphodiesterase 1 (TDP1) (Homo sapiens, UniProt Q9NUW8)', 'pIC50', '=', 6.55),
  ('CN1CCN(c2ccc3nc(-c4ccc5nc(-c6ccc7nc(CNC(=O)CCCCCC(=O)NCc8nc9ccc(-c%10nc%11ccc(-c%12nc%13ccc(N%14CCN(C)CC%14)cc%13[nH]%12)cc%11[nH]%10)cc9[nH]8)[nH]c7c6)[nH]c5c4)[nH]c3c2)CC1 [DB3(5)]', 'tyrosyl-DNA phosphodiesterase 1 (TDP1) (Homo sapiens, UniProt Q9NUW8)', 'pIC50', '<', 4.30),
  ('CN1CCN(c2ccc3nc(-c4ccc5nc(CNC(=O)CCN6CCN(CCC(=O)NCc7nc8ccc(-c9nc%10ccc(N%11CCN(C)CC%11)cc%10[nH]9)cc8[nH]7)CC6)[nH]c5c4)[nH]c3c2)CC1 [DB2P(2)]', 'tyrosyl-DNA phosphodiesterase 1 (TDP1) (Homo sapiens, UniProt Q9NUW8)', 'pIC50', '=', 5.05),
  ('CN1CCN(c2ccc3nc(-c4ccc5nc(-c6ccc7nc(CNC(=O)CC(=O)NCc8nc9ccc(-c%10nc%11ccc(-c%12nc%13ccc(N%14CCN(C)CC%14)cc%13[nH]%12)cc%11[nH]%10)cc9[nH]8)[nH]c7c6)[nH]c5c4)[nH]c3c2)CC1 [DB3(1)]', 'tyrosyl-DNA phosphodiesterase 1 (TDP1) (Homo sapiens, UniProt Q9NUW8)', 'pIC50', '<', 4.30),
  ('CN1CCN(c2ccc3nc(-c4ccc5nc(-c6ccc7nc(CNC(=O)CN8CCN(CC(=O)NCc9nc%10ccc(-c%11nc%12ccc(-c%13nc%14ccc(N%15CCN(C)CC%15)cc%14[nH]%13)cc%12[nH]%11)cc%10[nH]9)CC8)[nH]c7c6)[nH]c5c4)[nH]c3c2)CC1 [DB3P(1)]', 'tyrosyl-DNA phosphodiesterase 1 (TDP1) (Homo sapiens, UniProt Q9NUW8)', 'pIC50', '=', 7.00),
  ('CN1CCN(c2ccc3nc(-c4ccc5nc(-c6ccc7nc(CN)[nH]c7c6)[nH]c5c4)[nH]c3c2)CC1 [MB3]', 'tyrosyl-DNA phosphodiesterase 1 (TDP1) (Homo sapiens, UniProt Q9NUW8)', 'pIC50', '=', 6.15),
  ('CCCn1cc(NC(=O)CC(=O)Nc2cc(-c3nc4ccc(-c5nc6ccc(N7CCN(C)CC7)cc6[nH]5)cc4[nH]3)n(CCC)c2)cc1-c1nc2ccc(-c3nc4ccc(N5CCN(C)CC5)cc4[nH]3)cc2[nH]1 [DB2Py(1)]', 'tyrosyl-DNA phosphodiesterase 1 (TDP1) (Homo sapiens, UniProt Q9NUW8)', 'pIC50', '=', 6.60),
  ('CN1CCN(c2ccc3nc(-c4ccc5nc(CNC(=O)CCCCN6CCN(CCCCC(=O)NCc7nc8ccc(-c9nc%10ccc(N%11CCN(C)CC%11)cc%10[nH]9)cc8[nH]7)CC6)[nH]c5c4)[nH]c3c2)CC1 [DB2P(4)]', 'tyrosyl-DNA phosphodiesterase 1 (TDP1) (Homo sapiens, UniProt Q9NUW8)', 'pIC50', '=', 5.64),
  ('CCCn1cc(NC(C)=O)cc1-c1nc2ccc(-c3nc4ccc(N5CCN(C)CC5)cc4[nH]3)cc2[nH]1 [MB2Py(Ac)]', 'tyrosyl-DNA phosphodiesterase 1 (TDP1) (Homo sapiens, UniProt Q9NUW8)', 'pIC50', '=', 5.30),
  ('CN1CCN(c2ccc3nc(-c4ccc5nc(CN)[nH]c5c4)[nH]c3c2)CC1 [MB2]', 'tyrosyl-DNA phosphodiesterase 1 (TDP1) (Homo sapiens, UniProt Q9NUW8)', 'pIC50', '=', 5.70),
  ('CN1CCN(c2ccc3nc(-c4ccc5nc(-c6ccc7nc(CNC(=O)CCN8CCN(CCC(=O)NCc9nc%10ccc(-c%11nc%12ccc(-c%13nc%14ccc(N%15CCN(C)CC%15)cc%14[nH]%13)cc%12[nH]%11)cc%10[nH]9)CC8)[nH]c7c6)[nH]c5c4)[nH]c3c2)CC1 [DB3P(2)]', 'tyrosyl-DNA phosphodiesterase 1 (TDP1) (Homo sapiens, UniProt Q9NUW8)', 'pIC50', '=', 6.96),
  ('CN1CCN(c2ccc3nc(-c4ccc5nc(-c6ccc7nc(CNC(=O)CCCCCCCCCC(=O)NCc8nc9ccc(-c%10nc%11ccc(-c%12nc%13ccc(N%14CCN(C)CC%14)cc%13[nH]%12)cc%11[nH]%10)cc9[nH]8)[nH]c7c6)[nH]c5c4)[nH]c3c2)CC1 [DB3(9)]', 'tyrosyl-DNA phosphodiesterase 1 (TDP1) (Homo sapiens, UniProt Q9NUW8)', 'pIC50', '<', 4.30),
  ('CN1CCN(c2ccc3nc(-c4ccc5nc(-c6ccc7nc(CNC(=O)CCCCN8CCN(CCCCC(=O)NCc9nc%10ccc(-c%11nc%12ccc(-c%13nc%14ccc(N%15CCN(C)CC%15)cc%14[nH]%13)cc%12[nH]%11)cc%10[nH]9)CC8)[nH]c7c6)[nH]c5c4)[nH]c3c2)CC1 [DB3P(4)]', 'tyrosyl-DNA phosphodiesterase 1 (TDP1) (Homo sapiens, UniProt Q9NUW8)', 'pIC50', '=', 6.82),
  ('CCCn1cc(NC(=O)CCCCCCCCCC(=O)Nc2cc(-c3nc4ccc(-c5nc6ccc(N7CCN(C)CC7)cc6[nH]5)cc4[nH]3)n(CCC)c2)cc1-c1nc2ccc(-c3nc4ccc(N5CCN(C)CC5)cc4[nH]3)cc2[nH]1 [DB2Py(9)]', 'tyrosyl-DNA phosphodiesterase 1 (TDP1) (Homo sapiens, UniProt Q9NUW8)', 'pIC50', '=', 6.52),
  ('CN1CCN(c2ccc3nc(-c4ccc5nc(CNC(=O)CCCN6CCN(CCCC(=O)NCc7nc8ccc(-c9nc%10ccc(N%11CCN(C)CC%11)cc%10[nH]9)cc8[nH]7)CC6)[nH]c5c4)[nH]c3c2)CC1 [DB2P(3)]', 'tyrosyl-DNA phosphodiesterase 1 (TDP1) (Homo sapiens, UniProt Q9NUW8)', 'pIC50', '=', 5.39),
  ('CCCn1cc(NC(=O)CCCCC(=O)Nc2cc(-c3nc4ccc(-c5nc6ccc(N7CCN(C)CC7)cc6[nH]5)cc4[nH]3)n(CCC)c2)cc1-c1nc2ccc(-c3nc4ccc(N5CCN(C)CC5)cc4[nH]3)cc2[nH]1 [DB2Py(4)]', 'tyrosyl-DNA phosphodiesterase 1 (TDP1) (Homo sapiens, UniProt Q9NUW8)', 'pIC50', '=', 6.40);
